This listing pairs compounds with measured IC50.
- TGT: human muscarinic M4 receptor (Homo sapiens)
- Construct: expressed in transfected cells; host or cells: BSR-M4H
- Sequence (P08173 whole entry): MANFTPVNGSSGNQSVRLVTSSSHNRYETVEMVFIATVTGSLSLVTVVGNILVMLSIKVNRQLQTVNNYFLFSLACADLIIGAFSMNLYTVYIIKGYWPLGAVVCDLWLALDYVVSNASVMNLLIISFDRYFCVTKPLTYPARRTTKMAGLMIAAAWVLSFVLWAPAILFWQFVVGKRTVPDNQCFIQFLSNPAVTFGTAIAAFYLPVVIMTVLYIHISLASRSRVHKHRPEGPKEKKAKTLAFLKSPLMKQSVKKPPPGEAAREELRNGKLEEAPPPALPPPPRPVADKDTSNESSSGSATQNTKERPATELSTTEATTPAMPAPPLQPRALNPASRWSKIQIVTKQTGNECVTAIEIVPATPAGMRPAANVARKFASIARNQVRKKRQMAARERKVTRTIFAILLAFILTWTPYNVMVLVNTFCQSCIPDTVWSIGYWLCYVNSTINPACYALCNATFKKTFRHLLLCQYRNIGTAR
- EXPERIMENT DESCRIPTION: Binding to human muscarinic M4 receptors ([3H]N-methylscopolamine)
- MEASUREMENT PARAMETERS: human; Example 100 table; read-out: IC50 (nM) M4

Exam item: // fetch IC50 given entry CN1CCN(c2nc(C3(c4ccccc4F)CCOCC3)cs2)CC1
Marked response: > 1000 nM

Exam item: // fetch IC50 given entry CN1CCCC1CCNc1nc(C2(c3ccccc3F)CCCCC2)cs1 (racemic) [Compound 128]
Marked response: < 1000 nM

Exam item: // fetch IC50 given entry CN1CCCC1CCNc1nc(C2(c3ccccc3F)CCCCC2)cs1 (single isomer, unassigned) [Compound 130]
Marked response: > 1000 nM

###

This listing pairs molecules with measured IC50.
- TGT: human serotonin 5-HT6 receptor (Homo sapiens, UniProt P50406)
- Construct: expressed in transfected cells; host or cells: HeLa/E6-7
- Sequence (P50406 whole entry): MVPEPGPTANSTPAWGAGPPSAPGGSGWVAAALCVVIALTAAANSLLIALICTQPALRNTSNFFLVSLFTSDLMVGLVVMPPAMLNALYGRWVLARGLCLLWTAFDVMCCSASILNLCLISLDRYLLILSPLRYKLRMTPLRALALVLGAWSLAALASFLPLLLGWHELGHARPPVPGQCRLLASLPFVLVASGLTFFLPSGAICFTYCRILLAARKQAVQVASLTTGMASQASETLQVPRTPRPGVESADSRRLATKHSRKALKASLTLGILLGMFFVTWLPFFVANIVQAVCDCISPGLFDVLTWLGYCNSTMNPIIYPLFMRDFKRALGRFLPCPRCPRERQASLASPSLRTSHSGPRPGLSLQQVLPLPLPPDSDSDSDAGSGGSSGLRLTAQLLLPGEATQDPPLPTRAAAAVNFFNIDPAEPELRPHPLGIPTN
- EXPERIMENT DESCRIPTION: Radioligand binding assay, human 5-HT6 receptors ([3H]LSD)
- MEASUREMENT PARAMETERS: human 5-HT6; Example 16 table; read-out: IC50 (nM) 5-HT6

CN1CCN(c2nc(C3(c4ccc(F)cc4)CCCCC3)cs2)CC1 = < 1000 nM
CN1CCN(c2nc(C3(c4ccc(Cl)cc4)CCC3)cs2)CC1 = < 1000 nM
CN1CCC(c2nc(C3(c4ccc(Cl)cc4)CCCCC3)cs2)CC1 = < 1000 nM
CN1CCN(c2nc(C3(c4csc5ccc(Cl)cc45)CCOCC3)cs2)CC1 = < 100 nM
CN1CCN(c2nc(Cc3csc4ccc(Cl)cc34)cs2)CC1 = < 1000 nM

From here, focus on the item given below.
Exam item: Please respond with reported IC50 (system human serotonin 5-HT6 receptor (Homo sapiens, UniProt P50406)) for CCN1CCCC1CNc1nc(C2(c3ccc(Cl)cc3)CCC2)cs1 (stereo not drawn) .
Marked response: < 1000 nM

###

- TGT: human muscarinic M4 receptor (Homo sapiens)
- Construct: expressed in transfected cells; host or cells: BSR-M4H
- EXPERIMENT DESCRIPTION: Binding to human muscarinic M4 receptors ([3H]N-methylscopolamine)
- MEASUREMENT PARAMETERS: human; Example 101 table; read-out: IC50 (nM) M4
- Protocol: This assay measures binding of [^3H]N-methylscopolamine to human muscarinic M4 receptors. BSR-M4H cells transfected with a plasmid encoding the human muscarinic M4 receptor were used to prepare membranes in modified Tris-HCl pH 7.4 buffer using standard techniques. A 5 μg aliquot of membrane was incubated with 0.29 nM [^3H]N-methylscopolamine for 60 minutes at 25° C. […] Membranes were filtered and washed 3 times and the filters are counted to determine [^3H]N-methylscopolamine specifically bound. […]
RECORDED ENDPOINT: IC50

CN1CCN(c2nc(C3(c4ccccc4F)CCCC3)cs2)CC1 = < 500 nM
CN1CCN(c2nc(C3(c4cccc(Cl)c4)CCOCC3)cs2)CC1 = > 1000 nM
CN1CCN(c2nc(C3(c4ccccc4F)CCCCC3)cs2)CC1 = < 1000 nM
CN1CCN(c2nc(C3(c4csc5ccc(Cl)cc45)CCOCC3)cs2)CC1 = > 1000 nM

Exam item: // fetch IC50 given entry Clc1ccc(C2(c3csc(N4CCNCC4)n3)CCOCC2)cc1
Marked response: < 1000 nM

Each recorded value in this set is attributed to patent US7087623B2.
